B1: Subtilisin inhibitor, P01006 (parent)
chain: MRNTGAGPSPSVSRPPPSAAPLSGAALAAPGDAPSALYAPSALVLTVGKGVSATTAAPERAVTLTCAPGPSGTHPAAGSACADLAAVGGDLNALTRGEDVMCPMVYDPVLLTVDGVWQGKRVSYERVFSNECEMNAHGSSVFAF

- Variants of: B1
- condition.label: Streptomyces albogriseolus; pH 7; 82.21 °C; Thermal; DSC; Sodium phosphate 25 mM; reversible: yes; structure 3SSI; whole UniProt chain shown
Hi there, I'd appreciate the recorded ddG of mutation (higher = less stable) for every entry that follows.
Report the value in kcal/mol with no unit label.

What the record says about MRNTGAGPSPSVSRPPPSAAPLSGAALAAPGDAPSALYAPSALVLTVGKGVSATTAAPERAVTLTCAPGPSGTHPAAGSACADLAAVGGDLNALTRGEDVMCPMVYDPVLLTVDGVWQGKRVSYERVFSNECEVNAHGSSVFAF [M134V] : ddG of mutation (higher = less stable) is 1.84

What the record says about MRNTGAGPSPSVSRPPPSAAPLSGAALAAPGDAPSALYAPSALVLTVGKGVSATTAAPERAVTLTCAPGPSGTHPAAGSACADLAAVGGDLNALTRGEDVMCPMVYDPVLLTVDGVWQGKRVSYERVFSNECEANAHGSSVFAF [M134A] : ddG of mutation (higher = less stable) is 2.32

What the record says about MRNTGAGPSPSVSRPPPSAAPLSGAALAAPGDAPSALYAPSALVLTVGKGVSATTAAPERAVTLTCAPGPSGTHPAAGSACADLAAVGGDLNALTRGEDVMCPMVYDPVLLTVDGVWQGKRVSYERVFSNECEINAHGSSVFAF [M134I] : ddG of mutation (higher = less stable) is 1.89

What the record says about MRNTGAGPSPSVSRPPPSAAPLSGAALAAPGDAPSALYAPSALVLTVGKGVSATTAAPERAVTLTCAPGPSGTHPAAGSACADLAAVGGDLNALTRGEDVMCPMVYDPVLLTVDGVWQGKRVSYERVFSNECELNAHGSSVFAF [M134L] : ddG of mutation (higher = less stable) is -0.15
